Where a name gives a salt, the structure may show the parent alone.
Here we list molecules with their recorded IC50 when tested on Human KDR (Homo sapiens).
Sequence (P35968 790-1356): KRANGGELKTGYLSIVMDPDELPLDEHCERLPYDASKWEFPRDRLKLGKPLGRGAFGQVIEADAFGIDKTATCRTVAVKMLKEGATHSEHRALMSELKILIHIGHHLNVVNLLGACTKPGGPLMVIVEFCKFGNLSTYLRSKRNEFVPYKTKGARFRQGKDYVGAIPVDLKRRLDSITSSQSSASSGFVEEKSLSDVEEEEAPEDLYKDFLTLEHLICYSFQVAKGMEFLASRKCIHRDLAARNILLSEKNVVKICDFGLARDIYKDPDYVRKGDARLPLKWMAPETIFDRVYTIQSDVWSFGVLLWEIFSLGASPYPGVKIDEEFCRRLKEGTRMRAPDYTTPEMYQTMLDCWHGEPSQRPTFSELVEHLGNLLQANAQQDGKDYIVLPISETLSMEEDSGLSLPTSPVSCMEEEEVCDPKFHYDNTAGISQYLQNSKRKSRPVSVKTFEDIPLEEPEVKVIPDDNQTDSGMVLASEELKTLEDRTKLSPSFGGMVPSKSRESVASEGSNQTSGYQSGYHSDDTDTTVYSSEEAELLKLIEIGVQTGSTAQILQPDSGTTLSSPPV

Some solved cases for reference:
molecule	test_target	IC50
C=C(C)c1c(C)n(C)c(C)c(C(=O)Nc2ccc(Oc3ccnc4cc(OC)c(OC)nc34)cc2)c1=O [Compound 55]	Human KDR (Homo sapiens)	> 0.3 µM
C=C(C)c1c(C)nc(C)c(C(=O)Nc2cc(F)c(Oc3ccnc4cc(OC)c(OC)nc34)cc2F)c1O [Compound 6]	Human KDR (Homo sapiens)	≤ 0.1 µM
C=C(C)c1c(C)nc(C)c(C(=O)Nc2ccc(Oc3ccnc4cc(OC)c(OC)nc34)cc2)c1O [Compound 4]	Human KDR (Homo sapiens)	≤ 0.1 µM
COc1cc2nccc(Oc3ccc(NC(=O)c4c(C)n(C)c(C)c(C(=O)NC5CC5)c4=O)cc3F)c2nc1OC [Compound 96]	Human KDR (Homo sapiens)	> 0.3 µM
COc1cnc2c(Oc3ccc(NC(=O)c4c(C)nc(C)c(OC)c4O)cc3F)ccnc2c1 [Compound 60]	Human KDR (Homo sapiens)	≤ 0.1 µM
CNC(=O)c1c(C)nc(C)c(C(=O)Nc2ccc(Oc3ccnc4cc(OC)c(OC)nc34)c(F)c2)c1O [Compound 97]	Human KDR (Homo sapiens)	0.1 to 0.3 µM

# input Give recorded IC50 with Human KDR (Homo sapiens) for the following molecule: COc1cc2nccc(Oc3cc(F)c(NC(=O)c4c(C)nc(C)c(C(C)C)c4O)cc3F)c2nc1OC [Compound 10]
# output ≤ 0.1 µM

# input Then COc1cc2nccc(Oc3ccc(NC(=O)c4cnc(C)c(C5=CCCCC5)c4O)cc3F)c2nc1OC [Compound G1-3] ?
# output ≤ 0.1 µM

# input Then COc1cc2nccc(Oc3ccc(NC(=O)c4c(C)nc(C)c(C(=O)N(C)C)c4O)cc3F)c2nc1OC [Compound 93] ?
# output ≤ 0.1 µM

# input Then COc1cc2nccc(Oc3ccc(NC(=O)c4c(C)nc(C)c(C#N)c4O)cc3F)c2nc1OC [Compound 87] ?
# output 0.1 to 0.3 µM

# input Then COc1cc2nccc(Oc3ccc(NC(=O)c4cnc(C)c(/C=C/C5CC5)c4O)cc3F)c2nc1OC [Compound 26] ?
# output ≤ 0.1 µM

# input Then COc1cc2nccc(Oc3ccc(NC(=O)c4cnc(C)c(C5=CCCCC5)c4O)cc3)c2cc1OC [Compound 24] ?
# output ≤ 0.1 µM

# input Then COc1ccc2nccc(Oc3ccc(NC(=O)c4cnc(C)c(C5=CCOCC5)c4O)cc3F)c2n1 [Compound 1-5] ?
# output ≤ 0.1 µM

# input Then COCCOc1cc2nccc(Oc3ccc(NC(=O)c4c(C)n(C)c(C)c(/C=C/C(C)(C)C)c4=O)cc3F)c2nc1OC [Compound 45] ?
# output ≤ 0.1 µM

# input Then COc1cc2nccc(Oc3ccc(NC(=O)c4cnc(C)c(C5=CCCC5)c4O)cc3F)c2nc1OC [Compound G1-2, hydrochloride] ?
# output ≤ 0.1 µM
